- TEST_METHOD_NOTES: Inhibition of Plasmodium falciparum falcipain-2 after 12 hrs by fluorescence spectroscopy-based on-bead assay
- Parameters: concentration or dose not given beside the values
- REPORTED_CONDITIONS: concentration not given here
Peptide text beside a SMILES is read from it.
VALUE_KIND: inhibition (%)

- COMPOUND: "CC(C)[C@H](NC(=O)[C@H](C)NC(=O)[C@@H](NC(=O)[C@H](CCC(N)=O)NC(=O)/C=C/C(=O)NCC(=O)NCC(=O)N[C@@H](Cc1ccccc1)C(=O)O)C1CCCCC1)C(N)=O (HELM PEPTIDE1{[O=C(/C=C/C(=O)[*:2])NCC(=O)NCC(=O)N[C@@H](Cc1ccccc1)C(=O)O].Q.[O=C([C@@H](N[*:1])C1CCCCC1)[*:2]].A.V.[am]}$$$$V2.0)"
  U: "%"
  READOUT_VALUE: 40
- COMPOUND: "CC(C)C[C@H](NC(=O)[C@H](CC(N)=O)NC(=O)/C=C/C(=O)NCC(=O)NCC(=O)N[C@@H](Cc1ccccc1)C(=O)O)C(=O)N[C@H](C(=O)N[C@H](C(N)=O)C(C)C)C(C)C (HELM PEPTIDE1{[O=C(/C=C/C(=O)[*:2])NCC(=O)NCC(=O)N[C@@H](Cc1ccccc1)C(=O)O].N.L.V.V.[am]}$$$$V2.0)"
  U: "%"
  READOUT_VALUE: 48

====

Measured inhibition values are reported for all entries that follow.
- TEST_METHOD_NOTES: Inhibition of Plasmodium falciparum falcipain-2 after 12 hrs by fluorescence spectroscopy-based on-bead assay
- Design: concentration or dose not given beside the values
- REPORTED_CONDITIONS: concentration not given here
Peptide text beside a SMILES is read from it.
VALUE_KIND: inhibition (%)

- COMPOUND: "CC(C)C[C@H](NC(=O)[C@H](Cc1ccccc1)NC(=O)/C=C/C(=O)N[C@@H](C)C(=O)NCC(=O)N[C@@H](Cc1ccccc1)C(=O)O)C(=O)N[C@@H](CC(C)C)C(=O)N[C@H](C(N)=O)C(C)C (HELM PEPTIDE1{[C[C@H](NC(=O)/C=C/C(=O)[*:2])C(=O)NCC(=O)N[C@@H](Cc1ccccc1)C(=O)O].F.L.L.V.[am]}$$$$V2.0)"
  READOUT_VALUE: 62
- COMPOUND: "CC(C)C[C@H](NC(=O)[C@H](Cc1ccccc1)NC(=O)[C@H](CC(N)=O)NC(=O)/C=C/C(=O)NCC(=O)NCC(=O)N[C@@H](Cc1ccccc1)C(=O)O)C(=O)N[C@H](C(N)=O)C(C)C (HELM PEPTIDE1{[O=C(/C=C/C(=O)[*:2])NCC(=O)NCC(=O)N[C@@H](Cc1ccccc1)C(=O)O].N.F.L.V.[am]}$$$$V2.0)"
  READOUT_VALUE: 70

====

- SYSTEM_NAME: Rhodesain (Trypanosoma brucei rhodesiense) (UniProt Q95PM0)
- Sequence (Q95PM0 1-450): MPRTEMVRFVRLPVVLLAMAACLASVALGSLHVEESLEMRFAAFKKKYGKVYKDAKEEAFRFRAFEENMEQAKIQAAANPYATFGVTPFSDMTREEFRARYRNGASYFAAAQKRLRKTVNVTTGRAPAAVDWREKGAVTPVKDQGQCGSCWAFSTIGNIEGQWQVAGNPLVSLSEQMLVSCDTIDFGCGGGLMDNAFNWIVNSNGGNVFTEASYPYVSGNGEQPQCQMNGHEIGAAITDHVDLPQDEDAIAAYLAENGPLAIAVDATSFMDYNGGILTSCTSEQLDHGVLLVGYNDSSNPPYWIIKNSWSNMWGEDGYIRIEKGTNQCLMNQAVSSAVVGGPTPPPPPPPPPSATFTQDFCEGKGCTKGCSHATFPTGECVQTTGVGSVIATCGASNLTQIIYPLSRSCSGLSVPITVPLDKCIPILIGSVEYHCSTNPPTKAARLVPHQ
- TEST_METHOD_NOTES: Inhibition of Trypanosoma brucei rhodesiense rhodesain after 12 hrs by fluorescence spectroscopy-based on-bead assay
- Set-up: concentration or dose not given beside the values
- REPORTED_CONDITIONS: concentration not given here
Peptide text beside a SMILES is read from it.
VALUE_KIND: inhibition

- COMPOUND: "CC(C)C[C@H](NC(=O)[C@H](Cc1ccccc1)NC(=O)[C@H](C)NC(=O)/C=C/C(=O)N[C@@H](C)C(=O)NCC(=O)N[C@@H](Cc1ccccc1)C(=O)O)C(=O)N[C@H](C(N)=O)C(C)C (HELM PEPTIDE1{[C[C@H](NC(=O)/C=C/C(=O)[*:2])C(=O)NCC(=O)N[C@@H](Cc1ccccc1)C(=O)O].A.F.L.V.[am]}$$$$V2.0)"
  READOUT_VALUE: "66%"
- COMPOUND: "CC(C)[C@H](NC(=O)[C@H](C)NC(=O)[C@@H](NC(=O)[C@H](Cc1ccccc1)NC(=O)/C=C/C(=O)N[C@@H](C)C(=O)NCC(=O)N[C@@H](Cc1ccccc1)C(=O)O)c1ccccc1)C(N)=O (HELM PEPTIDE1{[C[C@H](NC(=O)/C=C/C(=O)[*:2])C(=O)NCC(=O)N[C@@H](Cc1ccccc1)C(=O)O].F.[Phg].A.V.[am]}$$$$V2.0)"
  READOUT_VALUE: "47%"
- COMPOUND: "CC(=O)NC[C@H](NC(=O)/C=C/C(=O)N[C@@H](C)C(=O)NCC(=O)N[C@@H](Cc1ccccc1)C(=O)O)C(=O)N[C@@H](Cc1ccccc1)C(=O)N[C@@H](C)C(=O)N[C@H](C(N)=O)C(C)C (HELM PEPTIDE1{[C[C@H](NC(=O)/C=C/C(=O)[*:2])C(=O)NCC(=O)N[C@@H](Cc1ccccc1)C(=O)O].[O=C([C@H](CN[*:3])N[*:1])[*:2]].F.A.V.[am]}|PEPTIDE2{[ac]}$PEPTIDE1,PEPTIDE2,2:R3-1:R2$$$V2.0)"
  READOUT_VALUE: "17%"
- COMPOUND: "CC(C)C[C@H](NC(=O)[C@H](CC(N)=O)NC(=O)/C=C/C(=O)N[C@@H](C)C(=O)NCC(=O)N[C@@H](Cc1ccccc1)C(=O)O)C(=O)N[C@@H](C)C(=O)N[C@H](C(N)=O)C(C)C (HELM PEPTIDE1{[C[C@H](NC(=O)/C=C/C(=O)[*:2])C(=O)NCC(=O)N[C@@H](Cc1ccccc1)C(=O)O].N.L.A.V.[am]}$$$$V2.0)"
  READOUT_VALUE: "42%"
- COMPOUND: "CC(C)C[C@H](NC(=O)[C@H](Cc1ccccc1)NC(=O)/C=C/C(=O)N[C@@H](C)C(=O)NCC(=O)N[C@@H](Cc1ccccc1)C(=O)O)C(=O)N[C@@H](CC(C)C)C(=O)N[C@H](C(N)=O)C(C)C (HELM PEPTIDE1{[C[C@H](NC(=O)/C=C/C(=O)[*:2])C(=O)NCC(=O)N[C@@H](Cc1ccccc1)C(=O)O].F.L.L.V.[am]}$$$$V2.0)"
  READOUT_VALUE: "69%"
- COMPOUND: "CC(=O)NC[C@H](NC(=O)/C=C/C(=O)N[C@@H](C)C(=O)NCC(=O)N[C@@H](Cc1ccccc1)C(=O)O)C(=O)N[C@H](C(=O)N[C@@H](C)C(=O)N[C@H](C(N)=O)C(C)C)c1ccccc1 (HELM PEPTIDE1{[C[C@H](NC(=O)/C=C/C(=O)[*:2])C(=O)NCC(=O)N[C@@H](Cc1ccccc1)C(=O)O].[O=C([C@H](CN[*:3])N[*:1])[*:2]].[Phg].A.V.[am]}|PEPTIDE2{[ac]}$PEPTIDE1,PEPTIDE2,2:R3-1:R2$$$V2.0)"
  READOUT_VALUE: "34%"
- COMPOUND: "CC(=O)NC[C@H](NC(=O)/C=C/C(=O)NCC(=O)NCC(=O)N[C@@H](Cc1ccccc1)C(=O)O)C(=O)N[C@@H](Cc1ccccc1)C(=O)N[C@H](C(=O)N[C@H](C(N)=O)C(C)C)C(C)C (HELM PEPTIDE1{[O=C(/C=C/C(=O)[*:2])NCC(=O)NCC(=O)N[C@@H](Cc1ccccc1)C(=O)O].[O=C([C@H](CN[*:3])N[*:1])[*:2]].F.V.V.[am]}|PEPTIDE2{[ac]}$PEPTIDE1,PEPTIDE2,2:R3-1:R2$$$V2.0)"
  READOUT_VALUE: "61%"
- COMPOUND: "CC(C)C[C@H](NC(=O)[C@H](CC(N)=O)NC(=O)/C=C/C(=O)NCC(=O)NCC(=O)N[C@@H](Cc1ccccc1)C(=O)O)C(=O)N[C@H](C(=O)N[C@H](C(N)=O)C(C)C)C(C)C (HELM PEPTIDE1{[O=C(/C=C/C(=O)[*:2])NCC(=O)NCC(=O)N[C@@H](Cc1ccccc1)C(=O)O].N.L.V.V.[am]}$$$$V2.0)"
  READOUT_VALUE: "52%"
- COMPOUND: "CC(C)C[C@H](NC(=O)[C@@H](NC(=O)[C@H](CC(N)=O)NC(=O)/C=C/C(=O)NCC(=O)NCC(=O)N[C@@H](Cc1ccccc1)C(=O)O)C1CCCCC1)C(=O)N[C@H](C(N)=O)C(C)C (HELM PEPTIDE1{[O=C(/C=C/C(=O)[*:2])NCC(=O)NCC(=O)N[C@@H](Cc1ccccc1)C(=O)O].N.[O=C([C@@H](N[*:1])C1CCCCC1)[*:2]].L.V.[am]}$$$$V2.0)"
  READOUT_VALUE: "69%"
- COMPOUND: "CC(C)[C@H](NC(=O)[C@@H](NC(=O)[C@@H](NC(=O)[C@H](CC(N)=O)NC(=O)/C=C/C(=O)NCC(=O)NCC(=O)N[C@@H](Cc1ccccc1)C(=O)O)C1CCCCC1)C(C)C)C(N)=O (HELM PEPTIDE1{[O=C(/C=C/C(=O)[*:2])NCC(=O)NCC(=O)N[C@@H](Cc1ccccc1)C(=O)O].N.[O=C([C@@H](N[*:1])C1CCCCC1)[*:2]].V.V.[am]}$$$$V2.0)"
  READOUT_VALUE: "46%"
- COMPOUND: "CC(C)C[C@H](NC(=O)[C@@H](NC(=O)[C@H](CCC(N)=O)NC(=O)/C=C/C(=O)N[C@@H](C)C(=O)NCC(=O)N[C@@H](Cc1ccccc1)C(=O)O)c1ccccc1)C(=O)N[C@H](C(N)=O)C(C)C (HELM PEPTIDE1{[C[C@H](NC(=O)/C=C/C(=O)[*:2])C(=O)NCC(=O)N[C@@H](Cc1ccccc1)C(=O)O].Q.[Phg].L.V.[am]}$$$$V2.0)"
  READOUT_VALUE: "68%"
